PROTOCOL_DESCRIPTION: MTS cytotoxicity assay on primary BAEC
Type: cell-based, bovine
CONDITIONS: bovine, primary bovine aortic endothelial cells (BAEC), 4 mM, read-out: Viability of BAEC cells compared to control, Ave (%)
VALUE_KIND: viability at 48 h, 4 mM (%)
Your answer should be a plain number; it is taken to be in %.

CC(C)CC(NC[C@@]1(O)OC[C@@H](O)[C@@H](O[C@@H]2O[C@H](CO)[C@H](O)[C@H](O)[C@H]2O)[C@@H]1O)C(=O)O (stereo in doubt) [ACT-1] | 112

What the record says about O=C(O)[C@H](CC1CC1)NC[C@@]1(O)OC[C@@H](O)[C@@H](O[C@@H]2O[C@H](CO)[C@H](O)[C@H](O)[C@H]2O)[C@@H]1O [ACT-2] : viability at 48 h, 4 mM is 118
